system: MGC-803; assay: Antiproliferative activity against human MGC-803 cells assessed as inhibition of cell proliferation incubated for 48 hrs by MTT assay; type: functional, cell-based; conditions: MGC-803, 48 h
Reported values of IC50 for individual entries

test_smiles	bound_type	IC50, nM
COc1ccc(-c2nn[nH]c2-c2ccnc3ccccc23)cc1O	=	32
c1ccc2c(-c3[nH]ncc3-c3ccc4c(c3)CCO4)ccnc2c1	>	10000
c1ccc2c(-c3[nH]nnc3-c3ccc4c(c3)CCO4)ccnc2c1	=	5690
CCOc1ccc(-c2[nH]nnc2-c2ccnc3ccccc23)cc1	=	59
COc1ccc(-c2[nH]nnc2-c2ccnc3ccccc23)cc1	=	153
COc1ccc(-c2cnoc2-c2cc(C)nc3ccccc23)cc1	=	14
COc1cccc(-c2cnoc2-c2ccnc3ccccc23)c1	=	2530
c1cc(-c2nn[nH]c2-c2ccnc3ccccc23)c2occc2c1	>	10000
Cc1cc(-c2[nH]ncc2-c2ccc3c(c2)CCO3)c2ccccc2n1	=	3240
COc1ccccc1-c1cn[nH]c1-c1ccnc2ccccc12	>	10000
COc1ccccc1-c1[nH]nnc1-c1ccnc2ccccc12	>	10000
CCOc1ccc(-c2cnoc2-c2ccnc3ccccc23)cc1	=	14
COc1ccc(-c2cn[nH]c2-c2ccnc3ccccc23)cc1[N+](=O)[O-]	=	1980
c1ccc2c(-c3[nH]nnc3-c3ccc4[nH]c5ccccc5c4c3)ccnc2c1	>	10000
CCOc1ccc(-c2cnoc2-c2cc(C)nc3ccccc23)cc1	=	18
CCOc1ccc(-c2cn[nH]c2-c2ccnc3ccccc23)cc1	=	249
CC(C)Oc1ccc(-c2cnoc2-c2ccnc3ccccc23)cc1	=	489
COc1cccc(-c2cn[nH]c2-c2ccnc3ccccc23)c1	=	1540
COc1ccc(-c2cn[nH]c2-c2ccnc3ccccc23)cc1	=	199
CCOc1ccc(-c2cn[nH]c2-c2cc(C)nc3ccccc23)cc1	=	31
COc1ccc(-c2cnoc2-c2ccnc3ccccc23)cc1[N+](=O)[O-]	=	28
Cc1cccc(-c2nn[nH]c2-c2ccnc3ccccc23)c1	>	10000
Cc1cc(-c2oncc2-c2ccc(OC(C)C)cc2)c2ccccc2n1	=	49
